tested on: Mus musculus; experiment: Neurotoxicity in CF1 mouse at 100 mg/kg, ip after 4 hrs by rotarod test; assay type: toxicity, organism-based; set-up: dose 100 mg/kg, route intraperitoneal; settings: in vivo
Quantity Name: Activity

Consider the reported Activity for these compounds:
Compound | Quantity Name | Readout Value
CCCOc1c(C(=O)N/N=C(\C)c2nccs2)sc(C(=O)N/N=C(\C)c2nccs2)c1OCCC | Activity | Non-toxic
CCCOc1c(C(=O)N/N=C(\C)c2ccccn2)sc(C(=O)N/N=C(\C)c2ccccn2)c1OCCC | Activity | Non-toxic
CCCOc1c(C(=O)NN=C2CC(C)Sc3sccc32)sc(C(=O)NN=C2CC(C)Sc3sccc32)c1OCCC (centres undefined) | Activity | Non-toxic
CCCOc1c(C(=O)N/N=C(\C)c2c[nH]c3ccccc23)sc(C(=O)N/N=C(\C)c2c[nH]c3ccccc23)c1OCCC | Activity | Non-toxic
CCCC/C=N/NC(=O)c1sc(C(=O)N/N=C/CCCC)c(OCCC)c1OCCC | Activity | Non-toxic

Problem: Dear colleague, I am looking for the recorded Activity of the following compound: CCCOc1c(C(=O)NN=C2CCCCC2)sc(C(=O)NN=C2CCCCC2)c1OCCC
Solution: Non-toxic

Problem: Given the compound CCCOc1c(C(=O)N/N=C\c2c[nH]c3ccccc23)sc(C(=O)N/N=C/c2c[nH]c3ccccc23)c1OCCC , what is its reported Activity?
Solution: Non-toxic

Problem: Tell me the measured Activity of CCCOc1c(C(=O)N/N=C\c2ccc3c(c2)Cc2ccccc2-3)sc(C(=O)N/N=C/c2ccc3c(c2)Cc2ccccc2-3)c1OCCC , please.
Solution: Non-toxic

---

tested on: Mus musculus; assay: Neurotoxicity in CF1 mouse at 300 mg/kg, ip after 4 hrs by rotarod test; format: toxicity, organism-based; set-up: dose 300 mg/kg, route intraperitoneal; conditions: in vivo
Quantity Name: Activity

Cpd Smiles | Activity
CCCOc1c(C(=O)NN=C2CCCCCC2)sc(C(=O)NN=C2CCCCCC2)c1OCCC | Non-toxic
CCCOc1c(C(=O)N/N=C\c2ccc([N+](=O)[O-])o2)sc(C(=O)N/N=C/c2ccc([N+](=O)[O-])o2)c1OCCC | Toxic
CCCOc1c(C(=O)NN=C(C)C)sc(C(=O)NN=C(C)C)c1OCCC | Non-toxic
CCCOc1c(C(=O)N/N=C(\C)c2cccs2)sc(C(=O)N/N=C(\C)c2cccs2)c1OCCC | Non-toxic
CCCOc1c(C(=O)N/N=C(\C)c2ccccc2)sc(C(=O)N/N=C(\C)c2ccccc2)c1OCCC | Non-toxic
CCCOc1c(C(=O)N/N=C(\C)c2cc3ccccc3oc2=O)sc(C(=O)N/N=C(\C)c2cc3ccccc3oc2=O)c1OCCC | Toxic
CCCOc1c(C(=O)N/N=C\c2ccccc2)sc(C(=O)N/N=C/c2ccccc2)c1OCCC | Non-toxic
CCCOc1c(C(=O)NN=C2CCCCC2)sc(C(=O)NN=C2CCCCC2)c1OCCC | Non-toxic
CCCOc1c(C(=O)N/N=C(/c2ccccc2)c2ccncc2)sc(C(=O)N/N=C(\c2ccccc2)c2ccncc2)c1OCCC | Non-toxic

Below: the item to evaluate.
Problem: Which Activity value is on record for CCCOc1c(C(=O)N/N=C(\c2ccccc2)c2ccc(Br)s2)sc(C(=O)N/N=C(\c2ccccc2)c2ccc(Br)s2)c1OCCC ?
Solution: Non-toxic

---

system: Mus musculus; assay: Anticonvulsant activity in CF1 mouse assessed as protection against maximal electroshock-induced seizures at 30 mg/kg, ip after 0.5 hrs; format: functional, organism-based; set-up: dose 30 mg/kg
Calls of active or inactive are those of the source. The rule behind the calls is not given here.
Quantity Name: Activity

Cpd Smiles | Activity
CCCOc1c(C(=O)N/N=C(\C)c2c[nH]c3ccccc23)sc(C(=O)N/N=C(\C)c2c[nH]c3ccccc23)c1OCCC | inactive
CCCOc1c(C(=O)N/N=C(\C)c2ccccn2)sc(C(=O)N/N=C(\C)c2ccccn2)c1OCCC | inactive
CCCOc1c(C(=O)NN=C2CCCC2)sc(C(=O)NN=C2CCCC2)c1OCCC | inactive
CCCOc1c(C(=O)NN=C2CCCCCC2)sc(C(=O)NN=C2CCCCCC2)c1OCCC | inactive

Let us examine a further case.
Problem: Can you share its Activity? I mean this compound: CCCOc1c(C(=O)N/N=C\c2ccccc2)sc(C(=O)N/N=C/c2ccccc2)c1OCCC
Solution: inactive

---

system: Mus musculus; experiment: Neurotoxicity in CF1 mouse at 100 mg/kg, ip after 0.5 hrs by rotarod test; format: toxicity, organism-based; parameters: dose 100 mg/kg, route intraperitoneal; details: in vivo
Quantity Name: Activity

Use these answered entries as a reference point.
Cpd Smiles | Readout Value
CCCOc1c(C(=O)NN=C2CCCCC2)sc(C(=O)NN=C2CCCCC2)c1OCCC | Non-toxic
CCCOc1c(C(=O)N/N=C\c2ccc([N+](=O)[O-])o2)sc(C(=O)N/N=C/c2ccc([N+](=O)[O-])o2)c1OCCC | Toxic
CCCOc1c(C(=O)NN=C(C)C)sc(C(=O)NN=C(C)C)c1OCCC | Non-toxic
CCCOc1c(C(=O)N/N=C(\C)c2ccc[nH]2)sc(C(=O)N/N=C(\C)c2ccc[nH]2)c1OCCC | Non-toxic

We next turn to a different compound, shown below.
Problem: Using the record for CCCOc1c(C(=O)NN=C2CCCCCC2)sc(C(=O)NN=C2CCCCCC2)c1OCCC , report its Activity.
Solution: Non-toxic

---

test system: Mus musculus; assay: Neurotoxicity in CF1 mouse at 100 mg/kg, ip after 4 hrs by rotarod test; type: toxicity, organism-based; parameters: dose 100 mg/kg, route intraperitoneal; conditions: in vivo
Quantity Name: Activity

Worked examples follow.
Molecule | Activity
CCCOc1c(C(=O)N/N=C/c2ccc3c(c2)c2ccccc2n3CC)sc(C(=O)N/N=C/c2ccc3c(c2)c2ccccc2n3CC)c1OCCC | Non-toxic
CCCOc1c(C(=O)N/N=C(\C)c2cccs2)sc(C(=O)N/N=C(\C)c2cccs2)c1OCCC | Non-toxic
CCCOc1c(C(=O)N/N=C\c2cc(OC)c(OC)c(OC)c2)sc(C(=O)N/N=C/c2cc(OC)c(OC)c(OC)c2)c1OCCC | Non-toxic
CCCOc1c(C(=O)N/N=C(\C)c2ccccc2)sc(C(=O)N/N=C(\C)c2ccccc2)c1OCCC | Non-toxic
CCCOc1c(C(=O)N/N=C(\C)c2ccc[nH]2)sc(C(=O)N/N=C(\C)c2ccc[nH]2)c1OCCC | Non-toxic

Problem: Test system Mus musculus; read-out Activity; what value for CCCOc1c(C(=O)N/N=C/c2ccc3cc(OC)ccc3c2)sc(C(=O)N/N=C/c2ccc3cc(OC)ccc3c2)c1OCCC ?
Solution: Non-toxic

Problem: GET /values?readout=Activity&system=Mus musculus&item= CCCOc1c(C(=O)NN=C2CC(C)Sc3sc(S(N)(=O)=O)cc32)sc(C(=O)NN=C2CC(C)Sc3sc(S(N)(=O)=O)cc32)c1OCCC (configuration not stated)
Solution: Non-toxic

---

system: Mus musculus; assay: Neurotoxicity in CF1 mouse at 100 mg/kg, ip after 4 hrs by rotarod test; assay type: toxicity, organism-based; set-up: dose 100 mg/kg, route intraperitoneal; details: in vivo
Quantity Name: Activity

# count of solved cases: 5
Cpd Smiles | Activity
CCCOc1c(C(=O)NN=C(C)C)sc(C(=O)NN=C(C)C)c1OCCC | Non-toxic
CCCOc1c(C(=O)N/N=C\c2cccs2)sc(C(=O)N/N=C/c2cccs2)c1OCCC | Non-toxic
CCCOc1c(C(=O)N/N=C(/c2ccccc2)c2ccncc2)sc(C(=O)N/N=C(\c2ccccc2)c2ccncc2)c1OCCC | Non-toxic
CCCOc1c(C(=O)N/N=C(\C)c2cc3ccccc3oc2=O)sc(C(=O)N/N=C(\C)c2cc3ccccc3oc2=O)c1OCCC | Non-toxic
CCCOc1c(C(=O)NN=C(c2ccccc2)c2ccccc2)sc(C(=O)NN=C(c2ccccc2)c2ccccc2)c1OCCC | Non-toxic

Problem: Data request, read-out Activity, for CCCOc1c(C(=O)N/N=C\c2ccccc2)sc(C(=O)N/N=C/c2ccccc2)c1OCCC
Solution: Non-toxic

Problem: Requested field: Activity. Item: CCCOc1c(C(=O)NN=C2CCCCCC2)sc(C(=O)NN=C2CCCCCC2)c1OCCC
Solution: Non-toxic

Problem: Quick check: Activity of CCCOc1c(C(=O)NN=C2CCCC2)sc(C(=O)NN=C2CCCC2)c1OCCC ?
Solution: Non-toxic

Problem: Could you tell me which Activity is on file for CCCOc1c(C(=O)N/N=C\c2ccc([N+](=O)[O-])o2)sc(C(=O)N/N=C/c2ccc([N+](=O)[O-])o2)c1OCCC ?
Solution: Toxic

Problem: Need Activity, item CCCOc1c(C(=O)N/N=C(\c2ccccc2)c2ccc(Br)s2)sc(C(=O)N/N=C(\c2ccccc2)c2ccc(Br)s2)c1OCCC
Solution: Toxic

Problem: What does the data say about its Activity? Entry: CCCOc1c(C(=O)N/N=C/c2ccc(-c3ccccc3)cc2)sc(C(=O)N/N=C/c2ccc(-c3ccccc3)cc2)c1OCCC
Solution: Non-toxic
